# assay-name: pKa of ammonium ion proton dissociation by aqueous solution titrimetry
# Type: physicochemical
# test-context: ammonium ion, aqueous titration
recorded-metric: pKa
API note: the answer field is a bare number with no unit suffix.

// query Quick check: pKa of O=S(=O)(O)CN1CCN(CCO)CC1 ?
// result 7.9

// query Same question, O=S(=O)(O)CN1CCOCC1 this time
// result 3.9

---

# assay-name: pKa of ammonium ion proton dissociation by aqueous solution titrimetry
# Type: physicochemical
# test-context: 0.3 M solution at 20 °C
recorded-metric: pKa
# respond with the number and nothing more

// query Name the reported pKa value associated with the molecule O=S(=O)(O)CN1CCOCC1 [compound 1, N-Morpholinomethanesulfonic acid]
// result 3.8

// query Moving on to the next molecule: O=S(=O)(O)CNC1CCCCC1 [compound 4, Cyclohexylaminomethanesulfonic acid]
// result 7.8

// query Now give it for O=S(=O)(O)CN1CCN(CS(=O)(=O)O)CC1 [compound 3] too.
// result 4.8
